B1: HDV Ribozyme (parent)
chain: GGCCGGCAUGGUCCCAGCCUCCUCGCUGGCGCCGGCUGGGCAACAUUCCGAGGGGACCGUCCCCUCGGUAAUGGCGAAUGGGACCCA

- Variants of: B1
- protocol_summary: self-cleavage, relative activity (ratio to wild type); higher = more cleavage; co-transcriptional
attribute_measured: self-cleavage

residue_string	endpoint_value
GGCCGGCAUGGUCCCACCCUCCUCGCUGGCGCCGGCUGGGCAACAUUCCGAGGGGAACGUCCCCUCGGUAAUGGCGAAUGGGACCCA [G17C C57A]	0.437
GGCCGGCAUGGUCCCAGCCUCCUCGCUGGCGUCGGCUGGGCAACAUUCCGAGGGGACCGUCCCCUCGGUAAUGGCGAAUAGGACCCA [C32U G80A]	0.256
GGCCGGCAUGGUCCCAGCCUCCUCGCUGGCGCCGGCUGGGCAACAUUCCGAGGGUACCGUCCCCUCGUUAAUGGCGAAUGGGACCCA [G55U G68U]	1
GGCCGGCAUGGUCUCAGCCUCCUCGCUGGCGCCGGCUGGGCAACAUUCCGAGGGGACCGUCCGCUCGGUAAUGGCGAAUGGGACCCA [C14U C63G]	0.831
GGCCGGCAUGGUCCCAGCCUCCUCGCUGGCUCCGGCUGUGCAACAUUCCGAGGGGACCGUCCCCUCGGUAAUGGCGAAUGGGACCCA [G31U G39U]	0.285
GGCCGGCAUGGUCCCAGCCUCCUCGCUGGCGCCGGCUGGGCAACAUUCCGAGGGGACCGUCCACCCGGUAAUGGCGAAUGGGACCCA [C63A U65C]	0.525
GGCCGGCAUGGUCCCAGCCUCCUCGCUGGCGCCGGCUGGGUAACAUUCCGAGGGGACCCUCCCCUCGGUAAUGGCGAAUGGGACCCA [C41U G59C]	0.963
GGCCGGCAUGGUCCCAGCCUCCUCGCUGGCGCCGGCUGGGCAACAUUCCGAGUGGACCGUCCCCUCGGUAAGGGCGAAUGGGACCCA [G53U U72G]	0.554
GGCCGGCAUGGUCCCAGCCUCCUCGCUGGCGCCCGCUGGGCAACAUUCCGAGGGGACCGUCCCCUCGGUAAUGGCGAAUGGGACCCG [G34C A87G]	0.089
GGCCGGCCUGGUCCCAGCCUCCUCGCUGGCGCCGGCUGGGCAACAUUCCGAGGGGACCGACCCCUCGGUAAUGGCGAAUGGGACCCA [A8C U60A]	0.831
GGCCGGCAUGGUCCCAGCCUCCUCGCUGGCGCCGGCUGGGCAACAUUCCGAGGGGACCGUCCCCUCGUUAAUGGCGAAUGGGACUCA [G68U C85U]	0.972
GGCCUGCAUGGUCCCAGCCUCCUCGCUGGCGCCGGCUGGGCAACAUUCCGAGGGGACCGUCCCCUCGGUAAUGGCGAAUCGGACCCA [G5U G80C]	0.0811
GGCCGGCAUGGUCCCAGCCUCCUCGCUGCCGCCGGCUGGGCAACAUUCCGGGGGGACCGUCCCCUCGGUAAUGGCGAAUGGGACCCA [G29C A51G]	0
GGCCGGCAUGGUCCCAGCCUCCUCGCUGGCGCCGGCUGGACAACAUUCCGAGGGGACCGCCCCCUCGGUAAUGGCGAAUGGGACCCA [G40A U60C]	1.11
GUCCGGCAUGGUCCCAGCCUCCUCGCUGGCGCCGGCUGGGCAACAUUCCGAGGGGACCGUCCCCUCGGUAAUCGCGAAUGGGACCCA [G2U G73C]	0
GGCCGGCAUGGUCCGAGCUUCCUCGCUGGCGCCGGCUGGGCAACAUUCCGAGGGGACCGUCCCCUCGGUAAUGGCGAAUGGGACCCA [C15G C19U]	0.0898
GGCCGGCAUGGUCCCAGCCUCCUCGCUGGCGCCGGCUGGGAAACAUUCCGAGGGGACCGUCCCCUCCGUAAUGGCGAAUGGGACCCA [C41A G67C]	0.525
GGCCGGCAUGGUCCCAGCCUCCUCGCUGGUGCCGGCUGGGCAACAUUCCGAGGGGACCGUCCCCUCGGUAAUGGCGAAUGUGACCCA [C30U G81U]	0.149
GGCCGGCAUGGUCCCAGCCUCCUCGCUGGCGCCGGCUGGGCAACAUUCUGAGGGGACCGUCCCCUCGGUAAUUGCGAAUGGGACCCA [C49U G73U]	0.509
AGCCGGCAUGGUCCCAGCCUCCUCGCAGGCGCCGGCUGGGCAACAUUCCGAGGGGACCGUCCCCUCGGUAAUGGCGAAUGGGACCCA [G1A U27A]	0
GGCCGGCAUGGUCCCAGCCUCCUCGCUGGCGCCGUCUGGGCAACAUUCCGAGGGGACCGUCCCCUCGAUAAUGGCGAAUGGGACCCA [G35U G68A]	0.351
GGCCGGCAUGGUCCCAGCCUCCUCGCUGGCGCCGGCUGGGCAACAUUCCGAGGGGACCGUCCCCUCGGUAUUGGCGAAUGGGACCCC [A71U A87C]	0.913
GGCCGGCAUGGUCCCAGCCUCCUCGCUGGUGCCGGCUGGGCAACAUACCGAGGGGACCGUCCCCUCGGUAAUGGCGAAUGGGACCCA [C30U U47A]	0.532
GUCCGGCAUGGUCCCAGCCGCCUCGCUGGCGCCGGCUGGGCAACAUUCCGAGGGGACCGUCCCCUCGGUAAUGGCGAAUGGGACCCA [G2U U20G]	0.0256
GGCCGGCAUGGUCCCAGCCUCCUCGCUGGCGCCGGCUGGGCACCAUUCCGAGGGGACCGUCCCCUCGGUAAUUGCGAAUGGGACCCA [A43C G73U]	0.604
GGCCGGCAUGGUCCCAGCCUCCUCGCUGGCGCCGGCUGGGCAACAUUCCAAGGGGACCGUCCCCUCGGUAAUGGCGAAUGGGACCCU [G50A A87U]	1.08
GGCCGGCAUGGUCCCAGCAUCCUCGCUGACGCCGGCUGGGCAACAUUCCGAGGGGACCGUCCCCUCGGUAAUGGCGAAUGGGACCCA [C19A G29A]	0
GGCCGGCAUGGGCCAAGCCUCCUCGCUGGCGCCGGCUGGGCAACAUUCCGAGGGGACCGUCCCCUCGGUAAUGGCGAAUGGGACCCA [U12G C15A]	0.237
GGCCGGCAUGGUACCAGCCUCCUCGCUGGCGCCGGCUGGGCAACAUUCCGAGGGGACCGUCCCCUCGGUAAUGGAGAAUGGGACCCA [C13A C75A]	0.0573
GGCCGGCAUGGCCCCAGCCUCCUCGCUGGCGCCGGCUGGGCAACAUUCCGAGGGGACCGUCCCCUCGGUAAUGGAGAAUGGGACCCA [U12C C75A]	0.166
GGCCGGCAUGGUCCCAGCCUCCUCCCUGGCGCCGGCUGGGCAACAUUCCGAGGGGACCGUCCCCUCGGUAAUGGCGAAUGGGACCAA [G25C C86A]	0.128
GGCCGGCAUGGUCCCAGCCUCCUCGCUGGCGCCGGCUGGGCAACAUUCCGAGGGGACCGUCCCCUCGGUAAUGGCUAAUGGGACUCA [G76U C85U]	1.24
GGCCGGCAUGGUCCCAGCCUCCUCGCUCGCGCCGGCUGGGCAACAUUCCGAGGGGACCGUCCCCUCGGUAAUGGCGAAUGGGACACA [G28C C85A]	0.0475
GGCCGGCAUGGUCCCAGCCUCCUCGCUGGCGCCGGCUGGGCAACAUUCCGAGGGGAUCGUCCCCUCGGUAAUGGCGAAUGGGAACCA [C57U C84A]	0.748
GGCCGGCAUGGUCCCAGCCUCCUCGCUGGCGCCGGCUGAGCAACAUUGCGAGGGGACCGUCCCCUCGGUAAUGGCGAAUGGGACCCA [G39A C48G]	0.507
GGCCGGCAUGGUCCCAGCAUCCUCGCUGGCGCCGGCUGGGCAACAUUCCGAGCGGACCGUCCCCUCGGUAAUGGCGAAUGGGACCCA [C19A G53C]	0.23
GGCCGGCAUGGUCCCAGCCUCCUCGCUGGCGCCGGCUGGGCAACAUUCCGAUGGGACCGUCCCCUCGGUAAUGGCGAAUGGGACCCG [G52U A87G]	0.906
GGCCGGCAUGGUCCCAGCCUCCUCGCUGGCGCCGGCUGGGCAACAAUCCGAGGGGACCGUCCCCUCGGUAAUGGCGAAUGGGACCGA [U46A C86G]	0.831
GGCCGGCAUGGUCCCAGCCUCCUCGCUGGCGCCGGCUGGGCAACAUUCCGAGGGGACCGUCCCCACGGUAAUGGCAAAUGGGACCCA [U65A G76A]	0.976
GGGCGGCAUGGUCCCAGCCUCCUCGCUGGCGCCGGCUGGGCGACAUUCCGAGGGGACCGUCCCCUCGGUAAUGGCGAAUGGGACCCA [C3G A42G]	0.138
GGCCGGCAUGGUUCCAGCCUCCUCGCUGGCGCCGGCUGGGCAACAUUCCGAGGGAACCGUCCCCUCGGUAAUGGCGAAUGGGACCCA [C13U G55A]	0.702
GGCCGGCAUGGUCCCAGCCUCCUCGUUGGCGCCGGCUGGGCAACAUUCCGAGGGGACCGUCCCCUCGGUAAUGGCGAAUGGGACCGA [C26U C86G]	1.14
GGUCGGCAUGGUCCCAGCCUCCUCGCUGGCGCCGGCUGGGCAACAUUCCGAGGGGACCGUCCCCUCGGUAAUGGCGAAUGGGACCCU [C3U A87U]	0.725
GGCCGGCAUAGUCCCAGCCUCCUCGCUGGCGCCGGCUGGGCAACAUUCCGAGGGGACCGUCCCCCCGGUAAUGGCGAAUGGGACCCA [G10A U65C]	0.769
GGCCGGCAUGGUCCCAGCCUUCUCGCUGGCGCCGUCUGGGCAACAUUCCGAGGGGACCGUCCCCUCGGUAAUGGCGAAUGGGACCCA [C21U G35U]	0.0804
GUCCGGCAUGGACCCAGCCUCCUCGCUGGCGCCGGCUGGGCAACAUUCCGAGGGGACCGUCCCCUCGGUAAUGGCGAAUGGGACCCA [G2U U12A]	0.17
